The origin of these recorded values is patent US20250195521A1.

# ASSAYED SYSTEM: K-Ras G12C(GMP-PNP) binding to BRAF RBD (Homo sapiens (Human), UniProt P01116+P62937, G12C)
# Sequence (P01116 other isoform, or with tags, fused parts or gaps G12C): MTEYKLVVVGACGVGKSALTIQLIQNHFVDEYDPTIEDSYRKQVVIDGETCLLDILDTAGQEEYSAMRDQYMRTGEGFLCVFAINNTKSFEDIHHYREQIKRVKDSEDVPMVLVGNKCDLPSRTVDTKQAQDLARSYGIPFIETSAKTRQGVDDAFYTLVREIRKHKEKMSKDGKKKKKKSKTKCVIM
# Sequence (P62937 whole entry): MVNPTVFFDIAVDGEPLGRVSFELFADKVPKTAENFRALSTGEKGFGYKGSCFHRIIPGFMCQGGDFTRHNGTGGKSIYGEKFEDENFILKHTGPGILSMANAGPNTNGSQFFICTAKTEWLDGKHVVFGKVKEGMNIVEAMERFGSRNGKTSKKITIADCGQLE
# METHOD DESCRIPTION: Disruption of BRAF RBD interaction with K-Ras (FRET / MOA assay), K-Ras G12C
# Assay type: biochemical
# ASSAY SETUP: read-out: KRAS G12C FRET IC50
pIC50: −log10 of the molar value.
# pIC50 values compiled below

COMPOUND | pIC50
CCn1c(-c2cccnc2[C@H](C)OC)c2c3cc(ccc31)-c1csc(n1)C[C@H](NC(=O)[C@H](C(C)C)N(C)C(=O)N1CC[C@H]3CN(C)C[C@H]31)C(=O)N1CCC[C@H](N1)C(=O)OCC(C)(C)C2 | 6.00 to 7.00
CCn1c(-c2cccnc2[C@H](C)OC)c2c3cc(ccc31)-c1cc(O)cc(c1)C[C@H](NC(=O)[C@H](C(C)C)N(C)C(=O)N1CC(N(C)C)C1)C(=O)N1CCC[C@H](N1)C(=O)OCC(C)(C)C2 | 5.00 to 6.00
CCn1c(-c2cccnc2[C@H](C)OC)c2c3cc(ccc31)-c1csc(n1)C[C@H](NC(=O)[C@H](C(C)C)N(C)C(=O)C1CCN(C(=O)/C=C/CN(C)C)C[C@@H]1C)C(=O)N1CCC[C@H](N1)C(=O)OCC(C)(C)C2 (stereo partly shown) | 7.00 to 8.00

Record `CCn1c(-c2cccnc2[C@H](C)OC)c2c3cc(ccc31)-c1csc(n1)C[C@H](NC(=O)[C@H](C(C)C)N(C)C(=O)N(C)C)C(=O)N1CCC[C@H](N1)C(=O)OCC(C)(C)C2` . Reported pIC50: 5.00 to 6.00
